# System: AMT
# Assay type: cell-based, rat
# Condition notes: [14C]AEA uptake, RBL-2H3 cells; read-out: AEA transport (IC50)
Catalogue of IC50 values
Entry rule: numbers only, all in µM.

For orientation, consider the following solved cases.
compound_smiles=CCCCC/C=C\C/C=C\C/C=C\C/C=C\CCCC(=O)NCc1ccc(OC(=O)CCCN2CCOCC2)c(OC)c1 metric=IC50 value_unit=µM data_value=30
compound_smiles=CCCCC/C=C\C/C=C\C/C=C\C/C=C\CCCNC(=S)NCc1ccc(O)c(Cl)c1 metric=IC50 value_unit=µM data_value=3.8
compound_smiles=CCCCC/C=C\C/C=C\C/C=C\C/C=C\CCCNC(=O)NCc1ccc(O)c(OC)c1 metric=IC50 value_unit=µM data_value=19.3
compound_smiles=CCCCC/C=C\C/C=C\C/C=C\C/C=C\CCCC(=O)NCc1ccc(O)c(Cl)c1 metric=IC50 value_unit=µM data_value=19

Write down the reported IC50 (system: AMT) of CCCCC/C=C\C/C=C\C/C=C\C/C=C\CCCC(=O)NCc1cccc(OC)c1
27.3

// fetch IC50; item: CCCCC/C=C\C/C=C\C/C=C\C/C=C\CCCNC(=S)NCc1ccc(O)c(OC)c1 ; system: AMT
7.5

Look up and report IC50, with AMT as system, for CCCCC/C=C\C/C=C\C/C=C\C/C=C\CCCC(=O)N(C)Cc1ccc(O)c(OC)c1
10

* * *

# Test system: mice
# Assay overview: Mouse 'tetrad' of tests after i.v. administration (Example 2)
# Condition notes: Mus musculus, iv, read-out: T.F. (tail-flick) ED50
Rule for this label: yes means ED50 is less than 0.3 mg/kg; no means ED50 is at least 0.3 mg/kg.

Is 0.3 mg/kg strictly greater than the compound's reported ED50? compound: COc1cc(CNC(=O)CCC/C=C\C/C=C\C/C=C\C/C=C\C(C)(C)CCCCO)ccc1O
no

Criterion: ED50 strictly below 0.3 mg/kg. Is it met by C[C@H](CO)NC(=O)CCC/C=C\C/C=C\C/C=C\C/C=C\C(C)(C)CCCCO ?
no

Regarding COc1cc(CNC(=O)CCC/C=C\C/C=C\C/C=C\C/C=C\C(C)(C)CCCCC#N)ccc1O , kindly confirm whether its ED50 is beneath 0.3 mg/kg.
yes

Dear reviewer, please state whether COc1cc(CNC(=O)CCC/C=C\C/C=C\C/C=C\C/C=C\C(C)(C)CCCCBr)ccc1O has ED50 strictly beneath 0.3 mg/kg.
yes

Is ED50 strictly under 0.3 mg/kg for the entry CCCCCCC(C)(C)/C=C\C/C=C\C/C=C\C/C=C\CCCC(=O)NCc1ccc(O)c(OC)c1 ?
yes

ED50 strictly < 0.3 mg/kg for this compound? C[C@H](CO)NC(=O)CCC/C=C\C/C=C\C/C=C\C/C=C\C(C)(C)CCCCC#N
yes

I wonder whether C[C@H](CO)NC(=O)CCC/C=C\C/C=C\C/C=C\C/C=C\C(C)(C)CCCCBr has ED50 below 0.3 mg/kg. Can you tell?
yes

* * *

# Target under test: human VR1 receptor (Homo sapiens, UniProt Q8NER1)
# Sequence (Q8NER1 whole entry): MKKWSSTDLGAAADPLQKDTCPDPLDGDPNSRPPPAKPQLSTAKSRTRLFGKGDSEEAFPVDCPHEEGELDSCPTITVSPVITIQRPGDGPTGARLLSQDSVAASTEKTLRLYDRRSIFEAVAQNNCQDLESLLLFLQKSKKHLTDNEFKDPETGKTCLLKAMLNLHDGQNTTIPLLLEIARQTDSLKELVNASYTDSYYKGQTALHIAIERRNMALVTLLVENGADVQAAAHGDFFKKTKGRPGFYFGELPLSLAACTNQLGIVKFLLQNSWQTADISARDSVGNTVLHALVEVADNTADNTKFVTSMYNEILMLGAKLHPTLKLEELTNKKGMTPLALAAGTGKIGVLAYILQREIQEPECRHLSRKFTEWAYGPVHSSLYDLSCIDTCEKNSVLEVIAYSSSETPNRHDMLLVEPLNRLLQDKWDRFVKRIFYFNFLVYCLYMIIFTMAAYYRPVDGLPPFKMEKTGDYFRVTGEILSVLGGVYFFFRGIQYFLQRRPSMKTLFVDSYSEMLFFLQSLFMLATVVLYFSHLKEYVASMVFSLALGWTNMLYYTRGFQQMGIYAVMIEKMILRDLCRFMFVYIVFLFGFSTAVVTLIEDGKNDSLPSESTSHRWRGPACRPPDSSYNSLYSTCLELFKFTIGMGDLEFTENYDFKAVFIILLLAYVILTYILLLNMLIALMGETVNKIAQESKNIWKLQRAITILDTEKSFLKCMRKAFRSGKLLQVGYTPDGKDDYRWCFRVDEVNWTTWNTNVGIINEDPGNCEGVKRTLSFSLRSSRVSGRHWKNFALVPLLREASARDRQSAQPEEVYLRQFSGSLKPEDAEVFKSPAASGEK
# Assay overview: Ca2+ influx (Fluo-3) in HEK-hVR1 cells (Example 2)
# Assay type: cell-based
# Design: expressed in transfected cells; host or cells: HEK 293 cells (HEK-hVR1)
# Condition notes: VR1 EC50, HEK cells with human VR1
Reported values of EC50 for individual entries
Supply the numeric figure in nM, leaving out any unit text.

compound="C[C@H](CO)NC(=O)CCC/C=C\\C/C=C\\C/C=C\\C/C=C\\C(C)(C)CCCCC#N [Compound O-1812]" data_value=1900

Alright, here's another compound for you.
Entry C[C@H](CO)NC(=O)CCC/C=C\C/C=C\C/C=C\C/C=C\C(C)(C)CCCCBr [Compound O-1860] needs its EC50 filled in; supply it.
370

* * *

Known Emax of a selection of molecules
# Target under test: CB1 receptors (Rattus norvegicus, UniProt P20272)
# Sequence (P20272 whole entry): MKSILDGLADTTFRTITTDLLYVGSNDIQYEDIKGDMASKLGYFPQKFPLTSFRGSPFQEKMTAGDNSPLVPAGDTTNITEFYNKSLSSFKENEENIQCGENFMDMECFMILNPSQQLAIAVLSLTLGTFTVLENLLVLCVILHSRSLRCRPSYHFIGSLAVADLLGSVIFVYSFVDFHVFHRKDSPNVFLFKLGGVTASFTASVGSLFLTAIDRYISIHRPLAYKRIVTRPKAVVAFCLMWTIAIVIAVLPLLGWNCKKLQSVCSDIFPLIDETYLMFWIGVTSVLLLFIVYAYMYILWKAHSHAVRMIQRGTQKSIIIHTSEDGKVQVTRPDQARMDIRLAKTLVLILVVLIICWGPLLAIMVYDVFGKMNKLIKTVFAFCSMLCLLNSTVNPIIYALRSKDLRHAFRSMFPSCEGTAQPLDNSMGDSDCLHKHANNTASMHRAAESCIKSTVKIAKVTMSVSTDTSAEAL
# Assay overview: Agonist-stimulated [35S]GTPγS binding, rat hippocampal membranes
# Condition notes: read-out: GTPγS binding (Emax)
State the value, then name its unit.

compound_smiles=CCCCC/C=C\C/C=C\C/C=C\C/C=C\CCCC(=O)NCc1cccc(OC)c1 data_value=0%
compound_smiles=CCCCC/C=C\C/C=C\C/C=C\C/C=C\CCCC(=O)N(C)Cc1ccc(O)c(OC)c1 data_value=0%
compound_smiles=CCCCC/C=C\C/C=C\C/C=C\C/C=C\CCCNC(=S)NCc1ccc(O)c(OC)c1 data_value=0%
compound_smiles=CCCCC/C=C\C/C=C\C/C=C\C/C=C\CCCNC(=S)NCc1ccc(O)c(Cl)c1 data_value=0%
compound_smiles=CCCCC/C=C\C/C=C\C/C=C\C/C=C\CCCC(=O)NCc1ccc(O)c(Cl)c1 data_value=15%
compound_smiles=CCCCC/C=C\C/C=C\C/C=C\C/C=C\CCCNC(=O)NCc1ccc(O)c(OC)c1 data_value=0%
compound_smiles=CCCCC/C=C\C/C=C\C/C=C\C/C=C\CCCC(=O)NCc1ccc(OC(=O)CCCN2CCOCC2)c(OC)c1 data_value=0%

Attention now shifts to the item below.
Annotate the molecule COc1cc(CNC(=O)CCC/C=C\C/C=C\C/C=C\C/C=C\C(C)(C)CCCCBr)ccc1O with its measured Emax.
32%

* * *

Overview of recorded ED50 for various compounds
# System: mice
# Assay overview: Mouse 'tetrad' of tests after i.v. administration (Example 2)
# Condition notes: Mus musculus, iv, read-out: Average ED50 for the four effects
Field format: number, assumed mg/kg, no unit text.

In the examples that follow, each entry is paired with its recorded ED50.
compound="CCCCCCC(C)(C)/C=C\\C/C=C\\C/C=C\\C/C=C\\CCCC(=O)NCc1ccc(O)c(OC)c1 [Compound O-1839]" metric=ED50 value_unit=mg/kg data_value=0.078
compound="COc1cc(CNC(=O)CCC/C=C\\C/C=C\\C/C=C\\C/C=C\\C(C)(C)CCCCO)ccc1O [Compound O-1856]" metric=ED50 value_unit=mg/kg data_value=0.873

Please look at the following compound next.
Identify ED50 associated with the compound COc1cc(CNC(=O)CCC/C=C\C/C=C\C/C=C\C/C=C\C(C)(C)CCCCC#N)ccc1O [Compound O-1895]
0.219

* * *

# Target under test: CB1 receptors (Rattus norvegicus)
# Assay overview: CB1 receptor binding, displacement of [3H]CP-55,940 from rat brain P2 membranes (Example 2)
# Set-up: from tissue; host or cells: whole rat brain membranes
# Condition notes: rat brain membranes, [3H]CP 55,940, without PMSF; read-out: CB1 (Ki)
Metric: pKi
Keep it numeric: pKi is minus log10 of the concentration in mol/L.

Determine from records and report pKi for C[C@H](CO)NC(=O)CCC/C=C\C/C=C\C/C=C\C/C=C\C(C)(C)CCCCO
6.94

* * *

Below, each entry is listed with its recorded Tail Flick ED50.
# Tested on: mice
# Assay overview: Mouse tetrad of behavioral tests, i.v. (Example 3)
# Assay type: in vivo
# Condition notes: i.v., mean (range)

compound="CCCCC/C=C\\C/C=C\\C/C=C\\C/C=C\\CCCC(=O)NCc1ccc(O)c(Cl)c1 [Compound O-2094]" metric="Tail Flick ED50" data_value="0.49 (0.35-0.67) milligrams per kilogram"

Quick one: give measured Tail Flick ED50 for CCCCC/C=C\C/C=C\C/C=C\C/C=C\CCCC(=O)NCc1ccc(OC(=O)CCCN2CCOCC2)c(OC)c1 [Compound O-2142]
0.19 (0.15-0.25) milligrams per kilogram

Give a short answer stating reported Tail Flick ED50 for CCCCC/C=C\C/C=C\C/C=C\C/C=C\CCCNC(=S)NCc1ccc(O)c(Cl)c1 [Compound O-2109] .
0.09 (0.06-0.12) milligrams per kilogram

Complete the entry with Tail Flick ED50 for CCCCC/C=C\C/C=C\C/C=C\C/C=C\CCCNC(=O)NCc1ccc(O)c(OC)c1 [Compound O-1987]
0.12 (0.08-0.17) milligrams per kilogram

Answer with the recorded Tail Flick ED50 of CCCCC/C=C\C/C=C\C/C=C\C/C=C\CCCNC(=S)NCc1ccc(O)c(OC)c1 [Compound O-2095] only.
0.08 (0.06-0.10) milligrams per kilogram

Look up and state reported Tail Flick ED50 for CCCCC/C=C\C/C=C\C/C=C\C/C=C\CCCC(=O)NCc1cccc(OC)c1 [Compound O-1986]
6.15 (4.63-8.16) milligrams per kilogram

* * *

Listed here: items and their measured ED50.
# System: mice
# Assay overview: Mouse 'tetrad' of tests after i.v. administration (Example 2)
# Condition notes: Mus musculus, iv, read-out: R.I. (relative immobility) ED50
Reply with just the number (in mg/kg).

compound="C[C@H](CO)NC(=O)CCC/C=C\\C/C=C\\C/C=C\\C/C=C\\C(C)(C)CCCCBr [Compound O-1860]" metric=ED50 value_unit=mg/kg data_value=0.43
compound="C[C@H](CO)NC(=O)CCC/C=C\\C/C=C\\C/C=C\\C/C=C\\C(C)(C)CCCCC#N [Compound O-1812]" metric=ED50 value_unit=mg/kg data_value=0.017
compound="COc1cc(CNC(=O)CCC/C=C\\C/C=C\\C/C=C\\C/C=C\\C(C)(C)CCCCBr)ccc1O [Compound O-1861]" metric=ED50 value_unit=mg/kg data_value=0.055
compound="COc1cc(CNC(=O)CCC/C=C\\C/C=C\\C/C=C\\C/C=C\\C(C)(C)CCCCO)ccc1O [Compound O-1856]" metric=ED50 value_unit=mg/kg data_value=0.76
compound="COc1cc(CNC(=O)CCC/C=C\\C/C=C\\C/C=C\\C/C=C\\C(C)(C)CCCCC#N)ccc1O [Compound O-1895]" metric=ED50 value_unit=mg/kg data_value=0.168

// moving on: another record for ED50
Return the recorded ED50 value; entry: C[C@H](CO)NC(=O)CCC/C=C\C/C=C\C/C=C\C/C=C\C(C)(C)CCCCO [Compound O-1811]
0.663
